biological target: Aldose reductase (Sus scrofa); construct: Lenses isolated from porcine eyes (Tokyo Sibaura Zouki Co., Ltd., Japan) were homogenized; tissue Tokyo Sibaura Zouki Co., Ltd., Japan (porcine eyes); host or cells: porcine lens; experiment: Aldose reductase inhibitory activity (in vitro); assay type: biochemical, porcine; details: crude enzyme from porcine lenses; D,L-glyceraldehyde 1.5 mM, NADPH 0.2 mM, pH 6.5, 37° C.; read-out: IC50 (aldose reductase inhibitory activity)
In this section we review reported IC50 values for a set of compounds.
measure-name: IC50

compound	value-measured
O=C1CC2(C(=O)N1)C(=O)N(Cc1ccc(C(F)(F)F)cc1)C(=O)c1cccn12 (stereo not drawn)	80 nM
O=C1CC2(C(=O)N1)C(=O)N(Cc1cccc(Br)c1)C(=O)c1cccn12 (stereo not drawn)	37 nM
COc1ccc(CN2C(=O)c3cccn3C3(CC(=O)NC3=O)C2=O)cc1 (stereo not drawn)	46 nM
O=C1CC2(C(=O)N1)C(=O)N(Cc1ccccc1Br)C(=O)c1cccn12 (stereo not drawn)	52 nM
O=C1CC2(C(=O)N1)C(=O)N(Cc1ccccc1)C(=O)c1cccn12 (stereo not drawn)	99 nM
O=C1CC2(C(=O)N1)C(=O)N(Cc1ccccc1F)C(=O)c1cccn12 (stereo not drawn)	61 nM
O=C1CC2(C(=O)N1)C(=O)N(Cc1ccc(Br)cc1F)C(=O)c1ccc(Br)n12 (stereo not drawn)	40 nM
COc1ccc(CN2C(=O)c3cccn3C3(CC(=O)NC3=O)C2=O)cc1OC (stereo not drawn)	110 nM
O=C1CC2(C(=O)N1)C(=O)N(Cc1ccc(Cl)c(Cl)c1)C(=O)c1cccn12 (stereo not drawn)	23 nM

* * *

In this section we review reported pIC50 values for a set of compounds.
target: Aldose reductase (Sus scrofa, UniProt P80276); construct: Lenses isolated from porcine eyes (Tokyo Sibaura Zouki Co., Ltd., Japan) were homogenized; tissue Tokyo Sibaura Zouki Co., Ltd., Japan (porcine eyes); host or cells: porcine lens; assay: Aldose reductase inhibitory activity (in vitro); type: biochemical, porcine; settings: crude enzyme from porcine lenses; D,L-glyceraldehyde 1.5 mM, NADPH 0.2 mM, pH 6.5, 37° C.; read-out: IC50 (aldose reductase inhibitory activity)
pIC50: −log10 of the molar value.
measure-name: pIC50

compound	value-measured
O=C1CC2(C(=O)N1)C(=O)N(Cc1ccc(Br)cc1F)C(=O)c1cc(Cl)cn12 (stereo not shown) [Example 19]	7.30
O=C1CC2(C(=O)N1)C(=O)N(Cc1ccc([N+](=O)[O-])cc1)C(=O)c1cccn12 (stereo not shown) [Example 15]	6.96
O=C1CC2(C(=O)N1)C(=O)N(Cc1ccc(F)cc1F)C(=O)c1cccn12 (stereo not shown) [Example 10]	7.14
O=C1CC2(C(=O)N1)C(=O)N(Cc1ccc(F)cc1)C(=O)c1cccn12 (stereo not shown) [Example 6]	6.92

* * *

In this section we review reported pIC50 values for a set of molecules.
biological target: Aldose reductase (Sus scrofa, UniProt P80276); construct: Lenses isolated from porcine eyes (Tokyo Sibaura Zouki Co., Ltd., Japan) were homogenized; tissue Tokyo Sibaura Zouki Co., Ltd., Japan (porcine eyes); host or cells: porcine lens; assay: Aldose reductase inhibitory activity (in vitro); type: biochemical, porcine; details: crude enzyme from porcine lenses; D,L-glyceraldehyde 1.5 mM, NADPH 0.2 mM, pH 6.5, 37° C.; read-out: IC50 (aldose reductase inhibitory activity)
pIC50: −log10 of the molar value.
measure-name: pIC50

molecule	value-measured
O=C1CC2(C(=O)N1)C(=O)N(Cc1ccc(Cl)cc1)C(=O)c1cccn12 (stereo not shown) [Example 7]	7.48
O=C1CC2(C(=O)N1)C(=O)N(Cc1cccc(Cl)c1)C(=O)c1cccn12 (stereo not shown) [Example 5]	7.51
O=C1CC2(C(=O)N1)C(=O)N(Cc1ccc(Br)cc1)C(=O)c1cccn12 (stereo not shown) [Example 8]	7.33
O=C1CC2(C(=O)N1)C(=O)N(Cc1ccc(Br)cc1F)C(=O)c1cc(Br)cn12 (stereo not shown) [Example 20]	7.00
